Record: compiled IC50 on IRAK1 (Homo sapiens, UniProt P51617) from multiple reports.
Sequence (P51617 whole entry): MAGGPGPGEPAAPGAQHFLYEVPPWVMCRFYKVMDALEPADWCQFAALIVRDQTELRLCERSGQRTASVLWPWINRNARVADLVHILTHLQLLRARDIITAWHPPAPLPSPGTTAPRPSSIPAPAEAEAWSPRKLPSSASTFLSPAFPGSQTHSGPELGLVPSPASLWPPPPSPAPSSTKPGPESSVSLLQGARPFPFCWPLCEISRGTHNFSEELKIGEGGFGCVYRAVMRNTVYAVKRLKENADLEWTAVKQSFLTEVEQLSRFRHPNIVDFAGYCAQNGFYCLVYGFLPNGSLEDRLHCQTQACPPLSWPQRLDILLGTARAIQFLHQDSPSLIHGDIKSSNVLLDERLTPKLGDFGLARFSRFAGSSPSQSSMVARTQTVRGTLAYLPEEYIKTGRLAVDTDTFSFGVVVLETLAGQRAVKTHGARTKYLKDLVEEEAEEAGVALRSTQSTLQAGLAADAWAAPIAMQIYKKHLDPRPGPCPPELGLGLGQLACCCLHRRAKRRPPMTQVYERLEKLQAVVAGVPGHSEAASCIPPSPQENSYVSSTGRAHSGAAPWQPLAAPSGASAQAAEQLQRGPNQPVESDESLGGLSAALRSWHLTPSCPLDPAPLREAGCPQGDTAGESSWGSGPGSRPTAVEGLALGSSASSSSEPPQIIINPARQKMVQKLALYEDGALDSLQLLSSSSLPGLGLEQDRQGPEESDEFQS

INSERT INTO measurements (smiles_code, reported_metric, result) VALUES
  ('Cn1cc(-c2cccc(-c3ncc(-c4cnn(C)c4)c(NCCCC(C)(C)O)n3)c2)cn1', 'IC50', '100 to 1000 nM'),
  ('COc1ccc2nc(-c3cc(-c4cnn(C(C)C)c4)cnc3N)[nH]c2c1', 'IC50', '1 to 100 nM');

Need IC50, item "COc1cc2nc3n(c2cc1OC)Cc1cccc(c1)-c1ccc(=O)n(n1)Cc1cccc(c1)C(=O)N3"
< 100 nM

Then "Cn1cc(-c2cccc(-c3ncc(-c4cnn(C)c4)c(NC45CC(CN)(C4)C5)n3)c2)cn1" ?
100 to 1000 nM

Try "Cn1cc(-c2cccc(-c3ncc(-c4cnn(C)c4)c(N[C@H]4C[C@@H](S(C)(=O)=O)C4)n3)c2)cn1" next.
100 to 1000 nM

Now this one: "Cn1cc(-c2cnc(N)c(-c3nc4ccc(F)cc4[nH]3)c2)cn1"
100 to 10000 nM

Next: "Cn1cc(-c2cccc(-c3ncc(-c4ccn(C)n4)c(NC[C@H](O)CO)n3)c2)cn1"
100 to 1000 nM

Also, "F[C@H]1CNC[C@@H]1Nc1cccc(-c2cnc3ccc(N4CCCCC4)nn23)n1" please.
1050 nM
